tested on: HL-60 human promyelocyte leukemia cells; assay: Growth inhibition assay in HL-60 cells (72 h, cell count); assay type: cell-based; details: Homo sapiens, HL-60; adding 50 or 100 μM of vitamin C; read-out: IC50 of growth inhibition, HL-60, with added vitamin C
pIC50: −log10 of the molar value.
observable: pIC50

{"molecule": "Oc1cc(C=Cc2cc(O)c(O)c(O)c2)cc(O)c1O [M8, 3,3′,4,4′,5,5′-Hexahydroxystilbene]", "observable": "pIC50", "measured": 5.70}

----------
system: HL-60 human promyelocyte leukemia cells; assay: Growth inhibition assay in HL-60 cells (72 h, cell count); format: cell-based; conditions: Homo sapiens, HL-60; Table 3, 72 h; read-out: Growth inhibition (72 h) HL-60
Quick rule for you: IC50 under 10 µM gets Condition met, anything else gets Condition not met.

{"compound": "COc1ccc(C=Cc2cc(OC)c(OC)c(OC)c2)cc1", "category": "Condition not met"}
{"compound": "Oc1cc(C=Cc2cc(O)c(O)c(O)c2)cc(O)c1O [M8, 3,3′,4,4′,5,5′-Hexahydroxystilbene]", "category": "Condition met"}
{"compound": "COc1cccc(C=Cc2cc(OC)cc(OC)c2)c1", "category": "Condition met"}
{"compound": "COc1cc(C=Cc2ccc(OC)c(OC)c2)cc(OC)c1", "category": "Condition not met"}
{"compound": "COc1cc(C=Cc2cc(OC)c(OC)c(OC)c2)cc(OC)c1OC", "category": "Condition not met"}
{"compound": "Oc1cc(O)cc(C=Cc2ccc(O)c(O)c2)c1 [M10, 3,3′,4′,5-Tetrahydroxystilbene]", "category": "Condition met"}
{"compound": "Oc1cc(O)cc(C=Cc2cc(O)cc(O)c2)c1 [M6, 3,3′,5,5′-Tetrahydroxystilbene]", "category": "Condition not met"}
{"compound": "Oc1ccc(C=Cc2cc(O)cc(O)c2)cc1 [Resveratrol, 3,4′,5-Trihydroxystilbene, reference compound]", "category": "Condition not met"}
{"compound": "COc1cc(C=Cc2cc(OC)cc(OC)c2)cc(OC)c1", "category": "Condition not met"}
{"compound": "COc1cc(C=Cc2cc(OC)c(OC)c(OC)c2)cc(OC)c1", "category": "Condition not met"}
{"compound": "Oc1ccc(C=Cc2cc(O)c(O)c(O)c2)cc1 [M9, 3,4,4′,5-Tetrahydroxystilbene]", "category": "Condition met"}

----------
Listed here: items and their measured IC50.
Molecular target: COX 2 (Homo sapiens, UniProt P35354)
Construct: purchased IBL Products Company, Hamburg, Germany
Sequence (P35354 18-604): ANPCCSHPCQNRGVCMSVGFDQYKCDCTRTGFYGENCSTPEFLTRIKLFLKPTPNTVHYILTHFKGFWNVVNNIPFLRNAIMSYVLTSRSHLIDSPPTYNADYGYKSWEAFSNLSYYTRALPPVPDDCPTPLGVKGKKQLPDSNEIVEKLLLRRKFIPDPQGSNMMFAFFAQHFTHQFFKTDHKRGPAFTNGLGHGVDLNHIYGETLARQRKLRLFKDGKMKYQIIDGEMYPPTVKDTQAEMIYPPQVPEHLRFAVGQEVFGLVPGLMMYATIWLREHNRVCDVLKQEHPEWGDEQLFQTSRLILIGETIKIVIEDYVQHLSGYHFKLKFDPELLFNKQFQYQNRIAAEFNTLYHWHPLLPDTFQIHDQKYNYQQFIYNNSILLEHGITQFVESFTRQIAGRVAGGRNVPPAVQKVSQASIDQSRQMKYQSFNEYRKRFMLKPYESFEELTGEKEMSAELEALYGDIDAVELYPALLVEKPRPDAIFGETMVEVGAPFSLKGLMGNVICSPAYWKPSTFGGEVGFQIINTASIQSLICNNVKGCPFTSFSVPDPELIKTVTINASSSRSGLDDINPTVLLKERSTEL
Assay: COX (human) inhibitor screening assay, COX 2
Format: biochemical

{"molecule": "Oc1cc(O)cc(C=Cc2cc(O)cc(O)c2)c1 [M6, 3,3′,5,5′-Tetrahydroxystilbene]", "IC50": "< 0.001 µM"}
{"molecule": "COc1cc(C=Cc2cc(OC)c(OC)c(OC)c2)cc(OC)c1 [M2, 3,3′,4,5,5′-Pentamethoxystilbene]", "IC50": "0.6 µM"}
{"molecule": "Oc1cc(O)cc(C=Cc2cc(O)c(O)c(O)c2)c1 [M7, 3,3′,4,5,5′-Pentahydroxystilbene]", "IC50": "0.005 µM"}
